Recorded NKL Ortho Proliferation Signal 1:10, one value per entry.
- target entity: T1, orthogonal hCD122 receptor (hoRb), hCD122 with H133D and Y134F (human, UniProt P14784 27-550)
- T1 sequence: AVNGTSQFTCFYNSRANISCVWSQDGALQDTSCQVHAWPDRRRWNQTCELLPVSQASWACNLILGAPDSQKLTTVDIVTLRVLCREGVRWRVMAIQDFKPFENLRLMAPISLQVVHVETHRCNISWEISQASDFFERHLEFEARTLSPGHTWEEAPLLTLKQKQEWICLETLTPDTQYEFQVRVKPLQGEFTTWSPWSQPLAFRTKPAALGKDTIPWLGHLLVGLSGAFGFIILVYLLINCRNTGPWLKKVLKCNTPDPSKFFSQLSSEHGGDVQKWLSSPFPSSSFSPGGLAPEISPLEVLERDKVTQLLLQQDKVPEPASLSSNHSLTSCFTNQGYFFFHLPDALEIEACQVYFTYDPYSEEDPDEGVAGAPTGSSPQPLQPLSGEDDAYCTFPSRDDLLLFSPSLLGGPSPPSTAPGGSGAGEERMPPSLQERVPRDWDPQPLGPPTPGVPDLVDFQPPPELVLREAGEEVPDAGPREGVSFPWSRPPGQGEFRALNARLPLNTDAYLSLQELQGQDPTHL
- protocol summary: cell-based or functional assay
assay endpoint: NKL Ortho Proliferation Signal 1:10

1. Q126C, SQVLKA (ligand) APTSSSTKKTQLQLSQLLVLLKAILNGINNYKNPKLTRMLTFKFYMPKKATELKHLQCLEEELKPLEEVLNLAQSKNFHLRPRDLISNINVIVLELKGSETTFMCEYADETATIVEFLNRWITFCCSIISTLT ... 8210
2. SQVLKL (ligand) APTSSSTKKTQLQLSQLLVLLKLILNGINNYKNPKLTRMLTFKFYMPKKATELKHLQCLEEELKPLEEVLNLAQSKNFHLRPRDLISNINVIVLELKGSETTFMCEYADETATIVEFLNRWITFCQSIISTLT ... 67100
3. R81Y, SQVLKA (ligand) APTSSSTKKTQLQLSQLLVLLKAILNGINNYKNPKLTRMLTFKFYMPKKATELKHLQCLEEELKPLEEVLNLAQSKNFHLYPRDLISNINVIVLELKGSETTFMCEYADETATIVEFLNRWITFCQSIISTLT ... 77900
4. ΔH16, S_VLKA (ligand) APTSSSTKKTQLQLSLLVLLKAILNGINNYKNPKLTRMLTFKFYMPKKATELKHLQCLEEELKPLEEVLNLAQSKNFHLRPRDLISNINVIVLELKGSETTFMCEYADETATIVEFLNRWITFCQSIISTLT ... 14200
